- System: Human colon cancer HT-29 transplantable tumor
- experiment.summary: Human colon cancer HT-29 transplantable tumor in nude mice
- run.parameters: HT-29 in nude mice, 60 mg/kg ig 9 times
Classify by measured Relative tumor reproduction rate T/C (%): t if it is equal to or exceeds 40%, f if it is smaller.

compound | assigned.label
CCc1ccc(NC(=O)Nc2ccc(Oc3ccnc4cc(F)c(OC)cc34)cc2)cc1C(F)(F)F [Compound 32] | t
CNC(=O)c1nc(Oc2ccc(NC(=O)Nc3ccc(F)c(C(F)(F)F)c3)cc2)c2ccc(F)cc2n1 [Compound 5] | f
CCc1ccc(NC(=O)Nc2ccc(Oc3ccnc4cc(F)c(C)cc34)cc2)cc1C(F)(F)F [Compound 34] | t
COc1ncncc1Oc1ccc(NC(=O)Nc2ccc(Br)c(C(F)(F)F)c2)cc1 [Compound 24] | f
COc1ccc2nccc(Oc3ccc(NC(=O)Nc4ccc(Cl)c(C(F)(F)F)c4)cc3)c2c1 [Compound 16] | t
CCNC(=O)c1cc(Oc2ccc(NC(=O)Nc3ccc(Cl)c(OC)c3)c(C)c2)c2ccc([N+](=O)[O-])cc2n1 [Compound 35] | t
CNC(=O)c1ncc(Oc2ccc(NC(=O)Nc3ccc(Br)c(C(F)(F)F)c3)cc2)c(OC)n1 [Compound 9] | f
CNC(=O)c1ncc(Oc2ccc(NC(=O)Nc3ccc(Br)c(C(F)(F)F)c3)cc2)c2ccc(N)cc12 [Compound 12] | t
CCc1cc(NC(=O)Nc2ccc(Oc3ccnc4cc(F)c(OC)cc34)cc2)ccc1Cl [Compound 31] | t
Nc1ccc2c(Oc3ccc(NC(=O)Nc4ccc(Br)c(C(F)(F)F)c4)cc3)cncc2c1 [Compound 27] | t
CNC(=O)c1cc(Oc2ccc(NC(=O)Nc3ccc(Br)c(C(F)(F)F)c3)cc2)c(C)[nH]1 [Compound 15] | t
CNC(=O)c1cc(Oc2ccc(NC(=O)Nc3ccc(Cl)c(C(F)(F)F)c3)cc2)c(C)[nH]1 [Compound 13] | t
